B1: MYL5 (parent)
chain: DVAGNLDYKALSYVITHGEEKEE

Variants of: B1
Assay: protein stability index of a GFP-peptide fusion (GPS, HEK-293T) (PSI 1-6); higher = more stable;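 further: lentivirally expressed fusions sorted by FACS into six bins by GFP to DsRed ratio, PSI derived from sequencing read proportions per bin multiplied by bin number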
Settings: c terminus: native
Reported protein stability index values for the following variants.

Previously resolved entries follow.
mutationdescriptor=E22H quantitykind="protein stability index" recordedmeasurement=4.65
mutationdescriptor=G18M quantitykind="protein stability index" recordedmeasurement=2.07
mutationdescriptor=V2K quantitykind="protein stability index" recordedmeasurement=1.82
mutationdescriptor=A10E quantitykind="protein stability index" recordedmeasurement=2.35
mutationdescriptor=L11M quantitykind="protein stability index" recordedmeasurement=1.15
mutationdescriptor=K21V quantitykind="protein stability index" recordedmeasurement=1.54
mutationdescriptor=L6T quantitykind="protein stability index" recordedmeasurement=2.82
mutationdescriptor=A10N quantitykind="protein stability index" recordedmeasurement=2.48
mutationdescriptor=D1N quantitykind="protein stability index" recordedmeasurement=2.24
mutationdescriptor=H17L quantitykind="protein stability index" recordedmeasurement=2.23

The variant V14T showed protein stability index equal to 2.14

protein stability index reported for this variant Y8D : 1.81

Given item G18H , the value recorded as its protein stability index is 1.7
